Assay: Solubility in water or 1-octanol (saturated solutions, UV-Vis)
Type: physicochemical
Settings: water, 35 °C, water, thermodynamic from solid; read-out: Aqueous solubility, C w
assay_readout: solubility (mM)

CC(C)(C)c1cn2c(=O)c3ncn(COCCO)c3nc2[nH]1: 20.4

A = O=c1c2ncn(COCCO)c2nc2[nH]c(-c3ccccc3)cn12
B = Nc1nc(O)c2ncn(COC(CO)CO)c2n1 [Compound 3, reference compound]
Quick check, higher solubility between A and B ? # reply format: chosen label
B

* * *

Experiment: Solubility in buffered cyclodextrin solutions (excess method of Higuchi and Connors)
Assay type: physicochemical
Conditions: phosphate buffer saturated with 1-octanol, aqueous with cosolvent or surfactant or cyclodextrin, thermodynamic from solid; Buffer saturated with 1-octanol + HP-β-CD (2 × 10^−2 mol·dm^−3), pH = 5.5, 37 °C; read-out: Solubility, C 6-Ph-O-Me-TACV
assay_readout: solubility at 7 days (µM)
All answers are understood in µM, so give the number only.

Which solubility at 7 days value belongs to COc1ccc(-c2cn3c(=O)c4ncn(COCCO)c4nc3[nH]2)cc1 ?
77

* * *

Test: Solubility in buffered cyclodextrin solutions (excess method of Higuchi and Connors)
Format: physicochemical
Details: buffered HP-β-CD solutions, pH = 7.0, 37 °C
assay_readout: Correlation parameter a (Eq. 2, Cs = a + b·CCD)

Example cases with answers are listed next.
COc1ccc(-c2cn3c(=O)c4ncn(COCCO)c4nc3[nH]2)cc1 [Compound 11]: 1.37 × 10^−4
Cc1cn2c(=O)c3nc(Br)n(COCCO)c3nc2[nH]1 [Compound 6]: 2.01 × 10^−3
O=c1c2ncn(COCCO)c2nc2[nH]c(-c3ccccc3)cn12 [Compound 8]: 3.36 × 10^−4
O=c1c2ncn(COCCO)c2nc2[nH]ccn12 [Compound 4]: 4.79 × 10^−3
O=c1c2ncn(COCCO)c2nc2[nH]c(-c3ccc4ccccc4c3)cn12 [Compound 12]: 4.29 × 10^−5

Consider the additional molecule presented here.
Which Correlation parameter a (Eq. 2, Cs = a + b·CCD) value is on record for O=c1c2ncn(COCCO)c2nc2[nH]c(-c3ccc(-c4ccccc4)cc3)cn12 [Compound 9] ?
5.95 × 10^−4

* * *

Test: Solubility in buffered cyclodextrin solutions (excess method of Higuchi and Connors)
Assay type: physicochemical
Conditions: phosphate buffer, aqueous buffer, thermodynamic from solid; Buffer, pH = 5.5, 37 °C; read-out: Solubility, C 6-Ph-O-Me-TACV
Procedure: Solubilities of the studied compounds was ensured according to the excess method of Higuchi and Connors. […] After 7 days equilibrium was reached and then the suspensions were centrifuged and the absorbance of the studied compounds was measured by UV-Vis spectrophotometry using a Shimadzu UV 2401 PC Spectrometer equipped with a thermostatically controlled cell compartment. […]
assay_readout: solubility at 7 days (µM)
Report only the number, with the unit µM understood.

Would you kindly share the measured solubility at 7 days for COc1ccc(-c2cn3c(=O)c4ncn(COCCO)c4nc3[nH]2)cc1 ?
99.4

* * *

Assay: Solubility in water or 1-octanol (saturated solutions, UV-Vis)
Assay type: physicochemical
Conditions: water, 35 °C, water, thermodynamic from solid; read-out: Aqueous solubility, C w
assay_readout: solubility (µM)

Consider the following illustrative entries.
O=c1c2ncn(COCCO)c2nc2[nH]c(-c3ccc(Br)cc3)cn12 [Compound 10]: 898
O=c1c2ncn(COCCO)c2nc2[nH]c(-c3ccc4ccccc4c3)cn12 [Compound 12]: 256

A = COc1ccc(-c2cn3c(=O)c4ncn(COCCO)c4nc3[nH]2)cc1 [Compound 11]
B = Cc1cn2c(=O)c3ncn(COCCO)c3nc2[nH]1 [Compound 5]
Field: lower solubility | Options: A / B # answer = label of selected item
A

a = Nc1nc2c(nc(Br)n2COCCO)c(=O)[nH]1 [Compound 2]
b = O=c1c2ncn(COCCO)c2nc2[nH]c(-c3ccc(-c4ccccc4)cc3)cn12 [Compound 9]
c = O=c1c2ncn(COCCO)c2nc2[nH]ccn12 [Compound 4]
Output the entries ranked by solubility from maximum down to minimum. Reply with the labels, ordered as the question asks.
c, a, b

a = Cc1cn2c(=O)c3nc(Br)n(COCCO)c3nc2[nH]1 [Compound 6]
b = Nc1nc2c(ncn2COCCO)c(=O)[nH]1 [Compound 1, 9-[(2-hydroxyethoxy)methyl] guanine, reference compound]
Please choose the item with the lower solubility value from this pair: a and b Please identify the chosen entry by its label.
a
